Source listed as ChEMBL document CHEMBL4321823.

Species: Homo sapiens
Assay: Selectivity index, ratio of Ki for displacement of [3H] Spiperone from human D3 receptor expressed in CHO cells to Ki for displacement of [3H] Spiperone from human D4.4 receptor expressed in CHO cells
Format: cell-based
reportedProperty: Ratio Ki
A bare number is all that is needed in reply.

// Input: `COc1ccccc1N1CCN(CCCNC(=O)NN(Cc2ccccc2)c2ccc(Cl)cc2)CC1` . Output its Ratio Ki only.
45

// Input: `O=C(NCCCN1CCN(c2ncccn2)CC1)NN(Cc1ccccc1)c1ccccc1` . Output its Ratio Ki only.
110

// Input: `O=C(NCCCN1CCN(c2ccc(I)cc2)CC1)NN(Cc1ccccc1)c1ccccc1` . Output its Ratio Ki only.
62

// Input: `COc1ccccc1N1CCN(CCCNC(=O)NN(Cc2ccc(C#N)cc2)c2ccc(Cl)cc2Cl)CC1` . Output its Ratio Ki only.
23

// Input: `COc1cccc(CN(NC(=O)NCCCN2CCN(c3ccccc3OC)CC2)c2ccc(F)cc2)c1` . Output its Ratio Ki only.
25

// Input: `O=C(NCCCN1CCN(c2ncccn2)CC1)NN(Cc1ccc(F)cc1)c1ccccc1` . Output its Ratio Ki only.
100

// Input: `COc1ccccc1N1CCN(CCNC(=O)/N=N/c2ccc(F)cc2)CC1` . Output its Ratio Ki only.
3.3

// Input: `COc1ccccc1N1CCN(CCCCNC(=O)/N=N/c2ccc(F)cc2)CC1` . Output its Ratio Ki only.
0.033

// Input: `COc1ccccc1N1CCN(CCCCNC(=O)NN(Cc2ccccc2)c2ccc(F)cc2)CC1` . Output its Ratio Ki only.
17

// Input: `COc1ccccc1N1CCN(CCCNC(=O)/N=N/c2ccc(F)cc2)CC1` . Output its Ratio Ki only.
7

----------
Assay: Drug metabolism in Sprague-Dawley rat liver microsomes assessed as unchanged remaining parent compound at 20 uM measured after 120 mins in presence of NADPH by LC-ESI-MS analysis
Assay type: ADME, Microsome
Conditions: read-out: Drug metabolism
reportedProperty: remaining at 2 h, 20 µM (%)
Expressed in %, but write only the number.

// Input: `COc1ccccc1N1CCN(CCCNC(=O)NN(Cc2ccccc2)c2ccccc2)CC1` . Output its remaining at 2 h, 20 µM only.
10

----------
Molecular target: UniProt:P41145
Sequence (P41145 whole entry): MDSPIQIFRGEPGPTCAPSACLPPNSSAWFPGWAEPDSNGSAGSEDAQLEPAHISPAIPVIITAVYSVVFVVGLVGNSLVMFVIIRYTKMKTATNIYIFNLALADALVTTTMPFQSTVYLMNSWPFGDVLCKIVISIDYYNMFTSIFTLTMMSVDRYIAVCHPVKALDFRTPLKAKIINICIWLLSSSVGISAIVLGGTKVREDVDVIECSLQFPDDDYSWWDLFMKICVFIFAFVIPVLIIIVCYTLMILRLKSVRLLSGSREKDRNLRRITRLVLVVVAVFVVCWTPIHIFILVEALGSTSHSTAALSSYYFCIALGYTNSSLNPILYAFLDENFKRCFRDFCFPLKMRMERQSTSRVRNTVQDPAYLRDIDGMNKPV
reportedProperty: pKi
Remember the convention: pKi equals -log10 of concentration in molar.

# return pKi of `COc1ccccc1N1CCN(CCCNC(=O)NN(Cc2ccccc2)c2ccccc2)CC1` (system: UniProt:P41145)
5.41

----------
Molecular target: D(4) dopamine receptor (Homo sapiens)
Sequence (P21917 whole entry): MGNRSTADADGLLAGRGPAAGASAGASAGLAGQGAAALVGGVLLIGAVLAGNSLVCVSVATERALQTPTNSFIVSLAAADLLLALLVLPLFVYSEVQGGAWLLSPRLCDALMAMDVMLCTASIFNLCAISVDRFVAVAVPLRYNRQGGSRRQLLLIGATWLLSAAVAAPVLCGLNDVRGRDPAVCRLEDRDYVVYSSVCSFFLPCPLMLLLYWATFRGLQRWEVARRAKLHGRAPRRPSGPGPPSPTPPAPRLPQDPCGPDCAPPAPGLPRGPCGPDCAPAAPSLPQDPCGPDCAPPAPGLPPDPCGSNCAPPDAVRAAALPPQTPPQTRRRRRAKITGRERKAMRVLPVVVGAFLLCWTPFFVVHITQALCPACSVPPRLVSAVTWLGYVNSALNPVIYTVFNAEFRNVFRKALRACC
Assay type: cell-based, HEK293
Description: Agonist activity at PKA-tagged D4 receptor (unknown origin) expressed in HEK293 cells co-expressing beta-arrestin2 assessed as induction of beta-arrestin2 recruitment incubated for 6 hrs by Path-Hunter assay
reportedProperty: pEC50
Remember the convention: pEC50 equals -log10 of concentration in molar.

# return pEC50 of `COc1ccccc1N1CCN(CCCNC(=O)NN(Cc2ccc(F)cc2)c2ccccc2)CC1` (system: D(4) dopamine receptor (Homo sapiens))
6.30

# return pEC50 of `COc1ccccc1N1CCN(CCCNC(=O)NN(Cc2ccccc2)c2ccc(F)cc2)CC1` (system: D(4) dopamine receptor (Homo sapiens))
6.47

----------
Molecular target: Alpha-1A adrenergic receptor (Homo sapiens, UniProt P35348)
Sequence (P35348 whole entry): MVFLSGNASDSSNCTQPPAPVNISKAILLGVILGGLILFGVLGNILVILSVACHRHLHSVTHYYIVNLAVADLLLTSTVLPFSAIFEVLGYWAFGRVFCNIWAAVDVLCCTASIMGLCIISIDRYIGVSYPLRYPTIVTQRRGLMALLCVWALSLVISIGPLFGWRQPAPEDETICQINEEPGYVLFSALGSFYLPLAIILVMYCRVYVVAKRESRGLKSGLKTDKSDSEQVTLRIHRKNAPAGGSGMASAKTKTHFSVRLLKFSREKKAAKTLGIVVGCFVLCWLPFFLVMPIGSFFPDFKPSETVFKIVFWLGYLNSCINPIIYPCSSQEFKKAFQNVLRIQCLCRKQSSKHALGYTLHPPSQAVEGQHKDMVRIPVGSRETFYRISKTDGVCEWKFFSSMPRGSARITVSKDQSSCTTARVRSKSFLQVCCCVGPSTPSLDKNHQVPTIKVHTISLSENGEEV
reportedProperty: pKi
Remember the convention: pKi equals -log10 of concentration in molar.

// Input: `COc1ccccc1N1CCN(CCCNC(=O)NN(Cc2ccc(F)cc2)c2ccccc2)CC1` . Output its pKi only.
8.80

----------
Field: pKi. Provide a value for each of the molecules that follow.
Biological target: D(3) dopamine receptor (Homo sapiens, UniProt P35462)
Sequence (P35462 whole entry): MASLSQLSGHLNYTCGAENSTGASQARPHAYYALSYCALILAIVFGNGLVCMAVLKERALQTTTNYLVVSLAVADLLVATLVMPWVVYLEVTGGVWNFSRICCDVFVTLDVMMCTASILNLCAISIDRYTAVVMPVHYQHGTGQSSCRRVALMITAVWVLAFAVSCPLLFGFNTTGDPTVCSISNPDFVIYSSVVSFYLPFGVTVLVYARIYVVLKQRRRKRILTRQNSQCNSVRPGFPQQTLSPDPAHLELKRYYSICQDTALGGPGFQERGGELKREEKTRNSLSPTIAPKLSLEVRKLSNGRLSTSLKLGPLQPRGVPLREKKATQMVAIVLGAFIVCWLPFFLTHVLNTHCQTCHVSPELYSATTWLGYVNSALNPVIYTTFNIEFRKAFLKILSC
Experiment: Displacement of [3H] Spiperone from human D3 receptor expressed in CHO cells by competitive radioligand binding assay
Assay type: cell-based
Remember the convention: pKi equals -log10 of concentration in molar.

# return pKi of `COc1ccccc1N1CCN(CCCNC(=O)NN(Cc2ccccc2)c2ccc(Cl)cc2Cl)CC1` (system: D(3) dopamine receptor (Homo sapiens, UniProt P35462))
7.21

# return pKi of `COc1ccccc1N1CCN(CCCNC(=O)NN(Cc2ccccc2F)c2ccc(F)cc2)CC1` (system: D(3) dopamine receptor (Homo sapiens, UniProt P35462))
6.80

# return pKi of `COc1cccc(CN(NC(=O)NCCCN2CCN(c3ccccc3OC)CC2)c2ccc(F)cc2)c1` (system: D(3) dopamine receptor (Homo sapiens, UniProt P35462))
6.82

# return pKi of `COc1ccc(N(Cc2ccccc2)NC(=O)NCCCN2CCN(c3ccccc3OC)CC2)cc1` (system: D(3) dopamine receptor (Homo sapiens, UniProt P35462))
6.92

# return pKi of `O=C(NCCCN1CCN(c2ccc(Cl)cc2)CC1)NN(Cc1ccc(F)cc1)c1ccccc1` (system: D(3) dopamine receptor (Homo sapiens, UniProt P35462))
6.07

# return pKi of `COc1ccccc1N1CCN(CCCNC(=O)NN(Cc2ccccc2F)c2ccc(Br)cc2)CC1` (system: D(3) dopamine receptor (Homo sapiens, UniProt P35462))
7.04

# return pKi of `C=C(C)CN(NC(=O)NCCCN1CCN(c2ccccc2OC)CC1)c1ccc(OC)cc1` (system: D(3) dopamine receptor (Homo sapiens, UniProt P35462))
6.07

----------
Species on record: Homo sapiens
Assay: Selectivity index, ratio of Ki for displacement of [3H] Spiperone from human D2S receptor expressed in CHO cells to Ki for displacement of [3H] Spiperone from human D4.4 receptor expressed in CHO cells
Assay type: cell-based
reportedProperty: Ratio Ki
A bare number is all that is needed in reply.

// Input: `O=C(NCCN1CCN(c2ccc(I)cc2)CC1)NN(Cc1ccccc1)c1ccccc1` . Output its Ratio Ki only.
12

// Input: `O=C(NCCN1CCN(c2ccc(Br)cc2)CC1)NN(Cc1ccccc1)c1ccccc1` . Output its Ratio Ki only.
15

// Input: `COc1ccccc1N1CCN(CCCNC(=O)NN(Cc2ccc(C#N)cc2)c2ccc(F)cc2)CC1` . Output its Ratio Ki only.
8

// Input: `COc1ccccc1N1CCN(CCNC(=O)/N=N/c2ccc(F)cc2)CC1` . Output its Ratio Ki only.
3.9

// Input: `COc1cccc(CN(NC(=O)NCCCN2CCN(c3ccccc3OC)CC2)c2ccc(F)cc2)c1` . Output its Ratio Ki only.
11

----------
Field: Ratio Ki. Provide a value for each of the compounds that follow.
Organism: Homo sapiens
Test: Selectivity index, ratio of Ki for displacement of [3H] Spiperone from human D2L receptor expressed in CHO cells to Ki for displacement of [3H] Spiperone from human D4.4 receptor expressed in CHO cells
Type: cell-based
A bare number is all that is needed in reply.

// Input: `COc1ccc(N(Cc2ccccc2F)NC(=O)NCCCN2CCN(c3ccccc3OC)CC2)cc1` . Output its Ratio Ki only.
16

// Input: `O=C(NCCCN1CCN(c2ccc(Cl)cc2)CC1)NN(Cc1ccc(F)cc1)c1ccccc1` . Output its Ratio Ki only.
29

// Input: `COc1ccccc1N1CCN(CCCNC(=O)NN(Cc2ccc(-c3ccccc3)cc2)c2ccc(F)cc2)CC1` . Output its Ratio Ki only.
24

// Input: `COc1cccc(CN(NC(=O)NCCCN2CCN(c3ccccc3OC)CC2)c2ccc(F)cc2)c1` . Output its Ratio Ki only.
19

// Input: `COc1ccccc1N1CCN(CCCCNC(=O)NN(Cc2ccccc2)c2ccc(F)cc2)CC1` . Output its Ratio Ki only.
36

// Input: `COc1ccccc1N1CCN(CCCNC(=O)/N=N/c2ccc(F)cc2)CC1` . Output its Ratio Ki only.
5.5

// Input: `COc1ccccc1N1CCN(CCCNC(=O)NN(Cc2ccccc2)c2ccc(Br)cc2)CC1` . Output its Ratio Ki only.
16

// Input: `COc1ccccc1N1CCN(CCCNC(=O)NN(Cc2ccc(C#N)cc2)c2ccc(Cl)cc2Cl)CC1` . Output its Ratio Ki only.
13

// Input: `COc1ccccc1N1CCN(CCCNC(=O)NN(Cc2ccc(F)cc2)c2ccc(F)cc2)CC1` . Output its Ratio Ki only.
17

// Input: `O=C(NCCCN1CCN(c2ccc(Br)cc2)CC1)NN(Cc1ccc(F)cc1)c1ccccc1` . Output its Ratio Ki only.
17

// Input: `COc1ccccc1N1CCN(CCCNC(=O)NN(Cc2ccccc2)c2ccc(Cl)cc2Cl)CC1` . Output its Ratio Ki only.
2.3

// Input: `O=C(NCCN1CCN(c2ccc(Br)cc2)CC1)NN(Cc1ccccc1)c1ccccc1` . Output its Ratio Ki only.
14

// Input: `COc1ccc(N(Cc2ccccc2)NC(=O)NCCCN2CCN(c3ccccc3OC)CC2)cc1` . Output its Ratio Ki only.
26

// Input: `COc1ccccc1N1CCN(CCCNC(=O)NN(Cc2ccccc2)c2ccc(Cl)cc2)CC1` . Output its Ratio Ki only.
11

// Input: `COc1ccccc1N1CCN(CCCNC(=O)NN(Cc2ccc(C#N)cc2)c2ccc(F)cc2)CC1` . Output its Ratio Ki only.
14

// Input: `COc1ccccc1N1CCN(CCNC(=O)/N=N/c2ccc(F)cc2)CC1` . Output its Ratio Ki only.
7.5

// Input: `COc1ccccc1N1CCN(CCCNC(=O)NN(Cc2cccc(F)c2)c2ccc(F)cc2)CC1` . Output its Ratio Ki only.
19

// Input: `COc1ccc(N(Cc2ccc(F)cc2)NC(=O)NCCCN2CCN(c3ccccc3OC)CC2)cc1` . Output its Ratio Ki only.
55

// Input: `O=C(NCCN1CCN(c2ccc(I)cc2)CC1)NN(Cc1ccccc1)c1ccccc1` . Output its Ratio Ki only.
11
